molecular target: PI3Kβ (Homo sapiens, UniProt P42338); assay: ADP-Glo cell-free PI3K kinase activity assay; details: read-out: Cell-free inhibitory IC50 PI3Kβ; ATP 25 μM; average of triple tests
Sequence (P42338 whole entry): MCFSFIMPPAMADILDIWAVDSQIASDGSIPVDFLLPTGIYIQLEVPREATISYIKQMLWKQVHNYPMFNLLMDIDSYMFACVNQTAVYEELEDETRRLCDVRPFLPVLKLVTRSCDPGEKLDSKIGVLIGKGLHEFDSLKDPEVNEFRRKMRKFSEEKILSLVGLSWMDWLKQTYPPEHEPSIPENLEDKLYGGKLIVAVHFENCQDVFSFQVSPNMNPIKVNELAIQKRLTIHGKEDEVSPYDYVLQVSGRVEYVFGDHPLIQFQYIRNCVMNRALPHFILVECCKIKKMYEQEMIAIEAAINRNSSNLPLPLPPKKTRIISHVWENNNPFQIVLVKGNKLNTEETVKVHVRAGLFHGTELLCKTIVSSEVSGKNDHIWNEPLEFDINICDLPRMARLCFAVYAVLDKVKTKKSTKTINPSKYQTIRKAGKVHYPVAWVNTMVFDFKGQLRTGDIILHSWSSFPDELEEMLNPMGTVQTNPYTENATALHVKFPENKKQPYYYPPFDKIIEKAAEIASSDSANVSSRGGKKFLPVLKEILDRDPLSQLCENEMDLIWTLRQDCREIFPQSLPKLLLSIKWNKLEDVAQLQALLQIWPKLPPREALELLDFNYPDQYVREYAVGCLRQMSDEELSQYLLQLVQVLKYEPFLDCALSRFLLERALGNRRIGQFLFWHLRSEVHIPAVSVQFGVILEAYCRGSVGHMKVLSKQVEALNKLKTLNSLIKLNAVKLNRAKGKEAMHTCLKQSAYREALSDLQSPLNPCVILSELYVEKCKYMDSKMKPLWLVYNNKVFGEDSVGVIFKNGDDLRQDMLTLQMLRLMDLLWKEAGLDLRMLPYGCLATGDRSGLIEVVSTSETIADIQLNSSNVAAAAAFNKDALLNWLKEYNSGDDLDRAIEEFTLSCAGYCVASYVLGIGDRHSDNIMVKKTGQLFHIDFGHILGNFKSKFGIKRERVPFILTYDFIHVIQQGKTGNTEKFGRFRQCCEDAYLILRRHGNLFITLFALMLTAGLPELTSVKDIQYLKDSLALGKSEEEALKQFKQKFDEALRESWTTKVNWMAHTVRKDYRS
Sequence (P27986 whole entry partner): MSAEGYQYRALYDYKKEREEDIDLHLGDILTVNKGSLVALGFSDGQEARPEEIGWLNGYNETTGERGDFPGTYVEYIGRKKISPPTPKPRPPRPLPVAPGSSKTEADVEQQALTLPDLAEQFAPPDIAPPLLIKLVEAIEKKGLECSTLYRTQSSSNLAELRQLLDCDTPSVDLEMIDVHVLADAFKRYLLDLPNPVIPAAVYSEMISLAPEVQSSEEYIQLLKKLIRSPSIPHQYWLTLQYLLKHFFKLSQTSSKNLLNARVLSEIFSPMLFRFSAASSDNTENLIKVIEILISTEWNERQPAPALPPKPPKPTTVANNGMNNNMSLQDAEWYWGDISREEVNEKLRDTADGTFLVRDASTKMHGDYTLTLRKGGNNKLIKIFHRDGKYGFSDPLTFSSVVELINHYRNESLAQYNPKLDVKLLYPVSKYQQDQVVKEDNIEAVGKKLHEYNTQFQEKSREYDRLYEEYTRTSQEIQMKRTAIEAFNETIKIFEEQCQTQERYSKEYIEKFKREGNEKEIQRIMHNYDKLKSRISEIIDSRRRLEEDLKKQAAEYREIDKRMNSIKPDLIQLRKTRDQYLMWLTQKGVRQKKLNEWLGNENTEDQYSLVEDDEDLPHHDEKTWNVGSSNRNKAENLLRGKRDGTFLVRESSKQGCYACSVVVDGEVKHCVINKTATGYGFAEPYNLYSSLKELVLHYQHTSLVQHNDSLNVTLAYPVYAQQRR
pIC50: −log10 of the molar value.
PROPERTY_LABEL: pIC50

Query: Quote PI3Kβ (Homo sapiens, UniProt P42338) pIC50 for entry CC(=O)c1c(C)n(-c2ccc(C)cc2)c2ccc(OCC(O)CNCc3ccc(Cl)cc3)cc12 (stereo not shown) [JN-KI3] .
Reply: < 4.70

* * *

molecular target: PI3Kδ (Homo sapiens, UniProt O00329); assay: ADP-Glo cell-free PI3K kinase activity assay; settings: read-out: Cell-free inhibitory IC50 PI3Kδ; ATP 25 μM; average of triple tests
Sequence (O00329 whole entry): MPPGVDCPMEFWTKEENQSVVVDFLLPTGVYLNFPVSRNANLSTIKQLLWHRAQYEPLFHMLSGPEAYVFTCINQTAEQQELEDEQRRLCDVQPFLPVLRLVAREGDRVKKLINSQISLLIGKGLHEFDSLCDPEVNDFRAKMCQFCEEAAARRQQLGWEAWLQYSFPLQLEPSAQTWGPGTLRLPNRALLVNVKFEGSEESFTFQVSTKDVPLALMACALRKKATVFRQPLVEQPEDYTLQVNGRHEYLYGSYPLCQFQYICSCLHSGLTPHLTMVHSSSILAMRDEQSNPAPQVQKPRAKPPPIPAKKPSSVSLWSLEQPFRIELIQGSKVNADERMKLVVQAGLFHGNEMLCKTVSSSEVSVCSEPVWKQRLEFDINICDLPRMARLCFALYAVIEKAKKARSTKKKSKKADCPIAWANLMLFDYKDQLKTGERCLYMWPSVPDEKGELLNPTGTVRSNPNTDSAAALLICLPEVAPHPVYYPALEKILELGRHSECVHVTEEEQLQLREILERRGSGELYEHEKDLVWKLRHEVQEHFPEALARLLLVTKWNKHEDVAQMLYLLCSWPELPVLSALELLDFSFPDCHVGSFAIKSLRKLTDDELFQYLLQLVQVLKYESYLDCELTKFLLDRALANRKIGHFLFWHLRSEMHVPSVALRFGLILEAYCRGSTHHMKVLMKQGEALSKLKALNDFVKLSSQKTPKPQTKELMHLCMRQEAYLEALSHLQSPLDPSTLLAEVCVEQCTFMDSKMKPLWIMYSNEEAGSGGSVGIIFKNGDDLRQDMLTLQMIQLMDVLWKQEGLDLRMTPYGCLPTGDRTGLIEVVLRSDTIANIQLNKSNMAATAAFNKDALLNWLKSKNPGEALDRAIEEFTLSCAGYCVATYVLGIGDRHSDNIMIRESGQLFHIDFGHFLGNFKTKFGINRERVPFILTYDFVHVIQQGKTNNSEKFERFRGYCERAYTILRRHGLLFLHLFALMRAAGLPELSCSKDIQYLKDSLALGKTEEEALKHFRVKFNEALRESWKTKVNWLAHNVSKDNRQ
Sequence (P27986 whole entry partner): as the sequence (P27986 whole entry partner) above
PROPERTY_LABEL: IC50

Query: Provide the reported IC50 (system: PI3Kδ (Homo sapiens, UniProt O00329)) for CC(=O)c1c(C)n(-c2ccc(C)cc2)c2ccc(OCC(O)CNCc3ccc(Cl)cc3)cc12 (stereo not shown)
Reply: > 20 µM
